Where these numbers come from: PubChem BioAssay (NCI)

Test system: OVCAR-3 ovarian
Assay: NCI-60 one-dose screen, 48 h (100 = growth as untreated, 0 = no growth, -100 = all killed)
Conditions: 10 µM unless noted
Compounds without any hit were thinned out: in the full panel of roughly 83,000, 20% have a hit.
Kindly apply the following: YES if growth is less than 80%, NO in every other case.

> print(dat)
                                    compound  classification
 1                          CCc1cc(C)cc(O)c1              NO
 2                Fc1ccc([I+]c2ccc(F)cc2)cc1             YES
 3                Brc1ccc(SSc2ccc(Br)cc2)cc1              NO
 4                      Nc1nc(N)c2[nH]cnc2n1              NO
 5                  N#CC(C#N)N=Nc1ccc(Cl)cc1             YES
 6  Cc1cc(-c2ccc(N=Nc3ccc4c(S(=O)(=O)O)cc(S(=O)(=O)O)c(N)c4c3O)c(C)c2)ccc1N=Nc1ccc2c(S(=O)(=O)O)cc(S(=O)(=O)O)c(N)c2c1O              NO
 7  OCC1OC(O)C(O)C(O)C1O (configuration not stated)              NO
 8  COc1cc(C(O)C2C(=O)OCC2C2(c3ccc4c(c3)OCO4)SCCCS2)cc(OC)c1OC (configuration not stated)              NO
 9                   CC(C)C(C)(C)c1ccc(O)cc1              NO
10                        CCCCCCCCCCNC(=O)CI             YES
11                          Nc1cc(N)c(N)cc1N             YES

* * *

// growth lookup, one value per entry
Test system: MDA-MB-231 breast
Test: NCI-60 one-dose screen, 48 h (100 = growth as untreated, 0 = no growth, -100 = all killed)
Conditions: 10 µM unless noted
The panel holds about 83,000 compounds, 20% with a hit somewhere; the sample as a whole holds those more often.
Property name: growth (%)

> print(dat)
                                   compound          tested.on  property.name  value.units  observed.value
1                  c1ccc(-c2nc3ccccc3s2)cc1  MDA-MB-231 breast         growth            %            68.5
2             O=C(Cc1ccccc1)c1ccc(O)c(Cl)c1  MDA-MB-231 breast         growth            %            49.8
3  COc1ccc(N/C=C/C2=[N+](C)c3ccccc3C2(C)C)c(OC)c1  MDA-MB-231 breast         growth            %            85.2
4               COc1ccc(Nc2ccc3ccccc3c2)cc1  MDA-MB-231 breast         growth            %            77.9
5                 Oc1ccc(Cc2ccccc2Cl)c(O)c1  MDA-MB-231 breast         growth            %            71.7
6                  N#CC(C#N)N=Nc1ccc(Cl)cc1  MDA-MB-231 breast         growth            %            47.2
7  CN(C)CC1CCCCCC(CN(C)C)C1=O (configuration not stated)  MDA-MB-231 breast         growth            %            86.2

* * *

Test system: DU-145 prostate
Assay: NCI-60 one-dose screen, 48 h (100 = growth as untreated, 0 = no growth, -100 = all killed)
Details: 10 µM unless noted
Compounds without any hit were thinned out: in the full panel of roughly 83,000, 20% have a hit.
growth reference
Property name: growth (%)

> print(dat)
            structure.notation  observed.value
1                           Cl             119
2             CCc1cc(C)cc(O)c1             122
3     c1ccc(-c2nc3ccccc3s2)cc1             113
4              CC1(C)COC(=S)N1             114
5  COc1ccc(Nc2ccc3ccccc3c2)cc1            83.2

* * *

System: NCI-H322M lung
Assay: NCI-60 one-dose screen, 48 h (100 = growth as untreated, 0 = no growth, -100 = all killed)
Settings: 10 µM unless noted
The panel holds about 83,000 compounds, 20% with a hit somewhere; the sample as a whole holds those more often.
// reported growth for each item listed
Property name: growth (%)

> print(dat)
                    structure.notation  property.name  observed.value
1           O=C(/C=C/c1ccccc1)c1ccccc1         growth             115
2                       CC(C)(O)C(=O)O         growth            98.6
3          c1ccc2c(c1)OC1OC2Oc2ccccc21         growth             104
4  CC(=O)NCC(=O)c1ccc([N+](=O)[O-])cc1         growth             103

* * *

Items are presented alongside their recorded growth.
Tested on: OVCAR-4 ovarian
Assay: NCI-60 one-dose screen, 48 h (100 = growth as untreated, 0 = no growth, -100 = all killed)
Conditions: 10 µM unless noted
This is part of a sample that, as a whole, favours compounds with a hit. Of some 83,000 tested, about 20% had one in any assay.
Property name: growth (%)

> print(dat)
                                    compound  value.units  observed.value
 1             O=C(Cc1ccccc1)c1ccc(O)c(Cl)c1            %            63.5
 2  CN(C)CC1CCCCCC(CN(C)C)C1=O (centres undefined)            %              79
 3                                        Cl            %             125
 4  COc1ccc(C(=O)CC(c2ccccc2)C(C#N)c2ccccc2)cc1 (centres undefined)            %            88.8
 5                        CCCCCCCCCCNC(=O)CI            %           -44.1
 6  CC1CCC2(OC1)OC1CC3C4CC=C5CC(O)CCC5(C)C4CCC3(C)C1C2C (centres undefined)            %            95.7
 7                                O=C(O)CCCl            %            98.8
 8                          CCc1cc(C)cc(O)c1            %             112
 9  CC1=C/C(O)CC(=O)Cc2nc(co2)C(=O)N2CCC=C2C(=O)OC(C(C)C)C(C)/C=C\C(=O)NC/C=C\1 (centres undefined)            %            78.5
10              CC(C)NC(=O)N/C=C(\C#N)C(N)=O            %             105
11  CC1CCC(C(C)C)C(NNC(N)=O)C1 (centres undefined)            %             111
12                               O=CN1CCCCC1            %             108
13                N#CC(C#N)N=Nc1cc(Cl)ccc1Cl            %            98.9
14                  c1ccc(CNCCNCc2ccccc2)cc1            %             103
15                O=C(/C=C/c1ccccc1)c1ccccc1            %            95.3
16  CCCCCCCCCCCCCCCc1ccc(N)c(OC2OC(CO)C(O)C(O)C2O)c1 (centres undefined)            %            85.2
17  CC(=O)OC(C)C(=O)NCC(C)O (centres undefined)            %             100
18                          Nc1cc(N)c(N)cc1N            %            25.3
19                Fc1ccc([I+]c2ccc(F)cc2)cc1            %            52.1
20                           CC1(C)COC(=S)N1            %             102
21                  N#CC(C#N)N=Nc1ccc(Cl)cc1            %            10.1
22                ClCCOCCOc1ccc(C2CCCCC2)cc1            %            97.7
23              Cc1ccc(S(=O)(=O)c2ccccc2)cc1            %            71.1
24                  CCCCNc1ccc(Nc2ccccc2)cc1            %              39
25  O=c1n(CC2CO2)c(=O)n(CC2CO2)c(=O)n1CC1CO1 (centres undefined)            %             100
26          O=C1OC(c2ccccc2)=N/C1=C\c1ccccc1            %             113
27  COc1ccc(N/C=C/C2=[N+](C)c3ccccc3C2(C)C)c(OC)c1            %            91.7
28                  c1ccc(-c2nc3ccccc3s2)cc1            %             101
29                       C#CCOC(=O)Nc1ccccc1            %            93.5
